Test system: C57BL/6 mouse spleen cells
Assay: Intracellular IFNγ expression by mouse CD4+ T cells stimulated with anti-CD3 + anti-CD28
Type: cell-based
Details: Lymphocyte, anti-CD3 + anti-CD28 48 hours, then brefeldin A 6 hours, read-out: IC50 generation of IFNγ-secreting Th1 lymphocytes

| compound | IC50 / nM |
| --- | --- |
| c1ccc(C2=C(CN3CCCCC3)C(c3ccccc3)c3ccccc3O2)cc1 (stereo not shown) [CBM-1] | 800 |
